Reference source for all entries: ChEMBL document CHEMBL1155989

protocol: Half life in Sprague-Dawley rat at 1 mg/kg, iv
Assay type: ADME, organism-based
Set-up: dose 1 mg/kg, route intravenous
measurement_conditions: in vivo
measured_parameter: half-life

>>> reported("CCO/N=C(/c1ccc(F)c(F)c1)c1ccc(CN2CCC3(CC2)OCc2cn(C)c(=O)cc23)cn1")
"1.4 h"

* * *

protocol: Metabolic stability in human liver microsomes assessed as compound remaining after 30 mins
Assay type: ADME, Microsome
measurement_conditions: read-out: Stability
So basically: is remaining at 0.5 h under 20%? Then fulfilled. Not under? Then not fulfilled.

>>> discrete_label("CCO/N=C(/c1ccc(F)c(F)c1)c1ccc(CN2CCC3(CC2)OCc2cc(=O)n(C)cc23)cn1")
"not fulfilled"
>>> discrete_label("O=C(C(c1ccc(F)c(F)c1)n1cccn1)N(CCF)CCCN1CCC2(CC1)OCc1cc(F)ncc12 (stereo not given)")
"fulfilled"
>>> discrete_label("CCO/N=C(/c1ccc(F)c(F)c1)c1ccc(CN2CCC3(CC2)OCc2cc(F)ncc23)cn1")
"fulfilled"
>>> discrete_label("Fc1cc2c(cn1)C1(CCN(Cc3ccc(Oc4ccc(F)c(F)c4)cc3)CC1)OC2")
"fulfilled"
>>> discrete_label("CCO/N=C(/c1ccc(F)c(F)c1)c1ccc(CN2CCC3(CC2)OCc2cn(C)c(=O)cc23)cn1")
"not fulfilled"

* * *

protocol: Cmax in Sprague-Dawley rat at 3 mg/kg, po
Format: ADME, organism-based
Set-up: dose 3 mg/kg, route oral
measurement_conditions: in vivo
measured_parameter: Cmax (nM)

>>> reported("CCO/N=C(/c1ccc(F)c(F)c1)c1ccc(CN2CCC3(CC2)OCc2cn(C)c(=O)cc23)cn1")
1850

* * *

protocol: Oral bioavailability in Sprague-Dawley rat
Assay type: ADME, organism-based
measurement_conditions: in vivo
measured_parameter: bioavailability (%)

>>> reported("CCO/N=C(/c1ccc(F)c(F)c1)c1ccc(CN2CCC3(CC2)OCc2cn(C)c(=O)cc23)cn1")
87

* * *

protocol: Metabolic stability in mouse liver microsomes assessed as compound remaining after 30 mins
Type: ADME, Microsome
measurement_conditions: read-out: Stability
Measured remaining at 0.5 h values are reported for all entries that follow.
measured_parameter: remaining at 0.5 h (%)

>>> reported("Fc1cc2c(cn1)C1(CCN(Cc3ccc(Oc4ccc(F)c(F)c4)cc3)CC1)OC2")
3
>>> reported("O=C(C(c1ccc(F)c(F)c1)n1cccn1)N(CCF)CCCN1CCC2(CC1)OCc1cc(F)ncc12 (stereo not given)")
22
>>> reported("CCO/N=C(/c1ccc(F)c(F)c1)c1ccc(CN2CCC3(CC2)OCc2cc(F)ncc23)cn1")
11
>>> reported("CCO/N=C(/c1ccc(F)c(F)c1)c1ccc(CN2CCC3(CC2)OCc2cn(C)c(=O)cc23)cn1")
57
>>> reported("CCO/N=C(/c1ccc(F)c(F)c1)c1ccc(CN2CCC3(CC2)OCc2cc(=O)n(C)cc23)cn1")
74

* * *

protocol: Cmax in diet-induced obese C57BL/6J mouse at 10 mg/kg, po
Format: ADME, organism-based
Design: dose 10 mg/kg, route oral
measurement_conditions: in vivo
measured_parameter: Cmax (µM)

>>> reported("CCO/N=C(/c1ccc(F)c(F)c1)c1ccc(CN2CCC3(CC2)OCc2cn(C)c(=O)cc23)cn1")
4.27
